assaySystem: Mannose-6-phosphate isomerase (Homo sapiens) (UniProt P34949)
Sequence (P34949 whole entry, looked up): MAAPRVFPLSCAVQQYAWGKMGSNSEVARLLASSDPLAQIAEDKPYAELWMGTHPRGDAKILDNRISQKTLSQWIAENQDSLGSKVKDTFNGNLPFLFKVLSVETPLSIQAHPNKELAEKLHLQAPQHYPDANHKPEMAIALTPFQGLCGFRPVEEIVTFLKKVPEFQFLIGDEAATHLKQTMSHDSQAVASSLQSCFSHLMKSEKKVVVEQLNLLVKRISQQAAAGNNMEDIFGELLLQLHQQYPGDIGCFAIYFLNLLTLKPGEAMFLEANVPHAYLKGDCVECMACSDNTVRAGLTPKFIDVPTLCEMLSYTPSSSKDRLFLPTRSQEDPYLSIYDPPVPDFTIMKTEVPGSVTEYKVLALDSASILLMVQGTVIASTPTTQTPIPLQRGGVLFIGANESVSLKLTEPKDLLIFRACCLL
protocol: MPI inhibition at elevated mannose 6-phosphate – biochemical, fluorescence intensity, high mannose 6-phosphate, primary screen (AID 1220)
testSettings: recombinant PMI enzyme, coupled fluorescence intensity; at 20 µM; stronger effect = higher value
In all, about 190,000 compounds went through this assay and about 1,300 (0.68%) were called active. The sample holds actives, similar compounds and a random draw of the others, so the mix is not that of the screen.
measurementLabel: inhibition (%)

> print(dat)
                                    compound  u  experimentalvalue
 1        O=C(O)C1CN(c2ncccc2[N+](=O)[O-])C1  %               26.1
 2  CNCC(O)COc1cccc(OC)c1 (configuration not stated)  %                9.8
 3  COc1cccc(C2CC(=O)NC3=C2C(=O)CCC3)c1 (configuration not stated)  %               -0.9
 4  CCn1c2ccccc2c2cc(NC(=O)CCCN3C(=O)CCC3=O)ccc21  %               -9.6
 5        CC1(C)Oc2cc(N)c([N+](=O)[O-])cc2O1  %               28.1
 6  O=C(O)C1CCCN1c1ncccc1[N+](=O)[O-] (configuration not stated)  %               50.8
 7  Nc1ccc(-c2ccc(N)c([N+](=O)[O-])c2)cc1[N+](=O)[O-]  %               -2.3
 8  CC(C)CC(N=Cc1c(O)c2ccccc2oc1=O)C(=O)O (configuration not stated)  %              -10.2
 9                COc1ccccc1NC(=O)C/C(N)=N/O  %               -9.6
10  Cc1cc(C)c(C(=O)Nc2ccc(S(=O)(=O)Nc3onc(C)c3C)cc2)c(C)c1  %                7.8
11  OCC[C@@H]1C[C@@H](O)[C@H](O)[C@]2(CCCCO2)O1  %                0.7
12      NC(=O)C1CCN(c2ncccc2[N+](=O)[O-])CC1  %               -3.3

The reported numbers originate from PubChem BioAssay AID1220.
